# apparent KD of MS2 coat protein listing for each entry below
# System: MS2 coat protein
# experimental_details: apparent KD of MS2 coat protein; higher = weaker reporter binding
# condition_info: Eterna round: R107; input ligand: tryptophan 2.4 mM

[
  {
    "sequence_chain": "AGUACUCGAACGGAUACCAGCCGGACAUGAGGAUCACCCAUGUCCUACCAUGGUUCGGUUGGCCCUUGGCAGCCGUUCGUGUACA [Omei Theo B SS A v3]",
    "apparent KD of MS2 coat protein / nM": 203
  },
  {
    "sequence_chain": "ACACAUGAGGAUCACCCAUGUGCAAUAGAUACCAGUGACGCGGUGCACCCUUGGCAGCUGUUGCUGAGUGAUGGUUCCCUCGGAA [Exclusion Theophylline A GF 6]",
    "apparent KD of MS2 coat protein / nM": 42.1
  },
  {
    "sequence_chain": "GACAUGAGGAUCACCCAUGUAUUGGGUGAUACCAGCCUGAAUCAUGGCCCUUGGCAGCACCGCGCUAACUUUAUGUUUGCGAACC [Mavegeceri]",
    "apparent KD of MS2 coat protein / nM": 56.5
  },
  {
    "sequence_chain": "GGUCGCCAACAUGGGUGGGCGACCCUGGAAGGAGCGAGCGAGAGCUCAGGUAGGUCGCCAGAACAUGAGGAUCACCCAUGUAAUA [(A)''-(M)'-(A)'(Arg1)-(Arg2)-(M1)-(M2)_Design13]",
    "apparent KD of MS2 coat protein / nM": 59.6
  }
]

###

# System: MS2 coat protein
# experimental_details: apparent KD of MS2 coat protein; higher = weaker reporter binding
# condition_info: Eterna round: R107; input ligand: theophylline 2 mM
Categories are defined by ranges of apparent KD of MS2 coat protein, namely low interval: < 30 nM; middle interval: ≥ 30 nM and < 100 nM; high interval: ≥ 100 nM

[
  {
    "sequence_chain": "GGAUAGGACAGAAGGAGCGACGUGAGGCGAAAGCCAAUCCUUCAACAUGAGGAUCACCCAUGUCAGGUAGGUCGCUGUCCUAUCG [ArgBX 5]",
    "group_label": "low interval"
  },
  {
    "sequence_chain": "GCCUCCAGCCGAAGGAGCGCUAGAAGGUGACAUGAGGAUCACCCAUGUGUGUGAUGUGGCUAGCAGGUAGGUCGCGGAGGAGGUU [Exclusion - Arginine B (Freestyle 20)]",
    "group_label": "high interval"
  },
  {
    "sequence_chain": "GCUUGGGUGGCCCAGCCCUGGCAGGGCGAUACCAGCCCGGUAACGGGCCCUUGGCAGCGCACAUGAGGAUCACCCAUGUGGUGCG [#1 Exclusion - Theophylline A Attempt #28 (HarryS)]",
    "group_label": "middle interval"
  },
  {
    "sequence_chain": "CAUGCCAGGGCGGCCGCCACUGUGGCUACGGUACAUGAGGAUCACCCAUGUUUGUGGUUGAUCUACAGGACCGGGCCCUAGCACG [Anananenes]",
    "group_label": "high interval"
  },
  {
    "sequence_chain": "GGGUGGUAGGCGGCCGCCACUGAUUUUUAUAUAUAUAUGACAUGAGGAUCACCCAUGUAGAUAUGCAGGACCGGGCCUGUUGUUU [aaaN]",
    "group_label": "low interval"
  },
  {
    "sequence_chain": "AUAUUAAUCGGAAGGAGCGGUACAUGAGGAUCACCCAUGUGUGAAGCGAGCAGAUCCCGUUACCAGGUAGGUCGCCGAGUUAUGA [XArg-B6]",
    "group_label": "high interval"
  },
  {
    "sequence_chain": "ACUUGUGAGUCGGCCGCCACUCACCGGUAGUGUCACUCGUUCACAAACAUGAGGAUCACCCAUGUGAGGACCGGGACAGUCGGGU [theeternabot_exclusion_MS2_Trp_B_28]",
    "group_label": "low interval"
  },
  {
    "sequence_chain": "GGAGCUACGUCGGCCGCCACUAGCGGUUAUUACGUGUACAUGAGGAUCACCCAUGUAAUAUGGCUUAGGACCGGGACGUAGCUCC [Wolverine]",
    "group_label": "low interval"
  },
  {
    "sequence_chain": "ACAUGAGGAUCACCCAUGUACAUGAGGGAAGGAGCGGUACAUGUGCCAGGUAGGUCGCCCAUGAGCAUCAGCCAUGUACAUCAGC [l,ommullin]",
    "group_label": "middle interval"
  },
  {
    "sequence_chain": "AGGACCAGGAUCCUCAUGUAACUGGUCCAACGAGGACCGGUACGGCCGCCACUCGAAUAAACAUGAGGAUCACCCAUGUAAUAAU [T''-M-T'-T-MS2]",
    "group_label": "high interval"
  },
  {
    "sequence_chain": "UUCACAUGGUAUGAAUAUACAUACAAGAAACGAGGACCGGUACGGCCGCCACUCGUGCCGGAAACAUGAGGAUCACCCAUGUGUU [AK1.2 Exclusion TrypA mod IceBolt]",
    "group_label": "middle interval"
  },
  {
    "sequence_chain": "AGAGUUAGACAAAAGUCUAGCUCACCAGAAGGAGCGUCCGAAAGGACAGGUAGGUCGCUGGUACAUGAGGAUCACCCAUGUUCCU [ArgAS 8 #OpenEnded]",
    "group_label": "high interval"
  },
  {
    "sequence_chain": "AACGUAUACAGAAGGAGCGUGAUUUAUAUUUCUUUAACAUAUACAUGAGGAUCACCCAUGUCACAGGUAGGUCGCUGUAUUCGUA [JR_ExcArginiB_Sub023]",
    "group_label": "middle interval"
  }
]
